Catalogue of EC50, receptor activation (SRE-Luc assay) values
# MEASURED_TARGET: T1, human galanin receptor 2 (hGalR2) (human, UniProt O43603 1-387)
# T1 sequence (looked up): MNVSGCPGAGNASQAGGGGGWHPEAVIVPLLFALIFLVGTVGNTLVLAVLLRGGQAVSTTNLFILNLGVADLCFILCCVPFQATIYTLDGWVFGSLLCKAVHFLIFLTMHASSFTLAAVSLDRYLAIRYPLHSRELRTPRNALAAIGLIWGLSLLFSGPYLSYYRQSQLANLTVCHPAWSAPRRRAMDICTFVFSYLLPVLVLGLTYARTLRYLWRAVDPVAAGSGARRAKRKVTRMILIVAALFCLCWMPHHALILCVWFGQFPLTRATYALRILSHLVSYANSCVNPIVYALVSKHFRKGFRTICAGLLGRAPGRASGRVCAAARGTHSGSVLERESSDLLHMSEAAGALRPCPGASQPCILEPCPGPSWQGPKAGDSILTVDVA
# ASSAY_METHOD_TEXT: cell-based or functional assay
Positions of bridges follow the written chain, without caps; N, C: chain ends. No end group written: not given here.
In your response, put the unit directly after the numeric value.

Before answering, review these 3 worked examples.
BINDER	VALUE
Ac-CWTPQAMLYLKGCQ-NH2 (disulfide 1-13; SMILES CSCC[C@@H]1NC(=O)[C@H](C)NC(=O)[C@H](CCC(N)=O)NC(=O)[C@@H]2CCCN2C(=O)[C@H]([C@@H](C)O)NC(=O)[C@H](Cc2c[nH]c3ccccc23)NC(=O)[C@@H](NC(C)=O)CSSC[C@@H](C(=O)N[C@@H](CCC(N)=O)C(N)=O)NC(=O)CNC(=O)[C@H](CCCCN)NC(=O)[C@H](CC(C)C)NC(=O)[C@H](Cc2ccc(O)cc2)NC(=O)[C@H](CC(C)C)NC1=O) [LH101 (Ac)]	380 nM
CWTLNSAGYLLGCHAV-NH2 (disulfide 1-13; N-terminus assumed; SMILES CC(C)C[C@@H]1NC(=O)[C@H](CC(C)C)NC(=O)[C@H](Cc2ccc(O)cc2)NC(=O)CNC(=O)[C@H](C)NC(=O)[C@H](CO)NC(=O)[C@H](CC(N)=O)NC(=O)[C@H](CC(C)C)NC(=O)[C@H]([C@@H](C)O)NC(=O)[C@H](Cc2c[nH]c3ccccc23)NC(=O)[C@@H](N)CSSC[C@@H](C(=O)N[C@@H](Cc2c[nH]cn2)C(=O)N[C@@H](C)C(=O)N[C@H](C(N)=O)C(C)C)NC(=O)CNC1=O) [LH201]	120 nM
CWTPQAMLYLKGAQ-NH2 [hSPX (C1)]	510 nM

Task: If you can, please state the reported EC50, receptor activation (SRE-Luc assay) value of Ac-CWTLNSAGYLLGCHAV-NH2 (disulfide 1-13) [LH201 (Ac)] .
Result: 480 nM

Task: If you can, please state the reported EC50, receptor activation (SRE-Luc assay) value of CWTPQAMLYLKGCQ-NH2 (disulfide 1-13; N-terminus assumed; SMILES CSCC[C@@H]1NC(=O)[C@H](C)NC(=O)[C@H](CCC(N)=O)NC(=O)[C@@H]2CCCN2C(=O)[C@H]([C@@H](C)O)NC(=O)[C@H](Cc2c[nH]c3ccccc23)NC(=O)[C@@H](N)CSSC[C@@H](C(=O)N[C@@H](CCC(N)=O)C(N)=O)NC(=O)CNC(=O)[C@H](CCCCN)NC(=O)[C@H](CC(C)C)NC(=O)[C@H](Cc2ccc(O)cc2)NC(=O)[C@H](CC(C)C)NC1=O) [LH101] .
Result: 1190 nM
